study-target: Solute carrier family 12 member 5 (Homo sapiens, UniProt Q9H2X9)
Sequence (Q9H2X9 whole entry): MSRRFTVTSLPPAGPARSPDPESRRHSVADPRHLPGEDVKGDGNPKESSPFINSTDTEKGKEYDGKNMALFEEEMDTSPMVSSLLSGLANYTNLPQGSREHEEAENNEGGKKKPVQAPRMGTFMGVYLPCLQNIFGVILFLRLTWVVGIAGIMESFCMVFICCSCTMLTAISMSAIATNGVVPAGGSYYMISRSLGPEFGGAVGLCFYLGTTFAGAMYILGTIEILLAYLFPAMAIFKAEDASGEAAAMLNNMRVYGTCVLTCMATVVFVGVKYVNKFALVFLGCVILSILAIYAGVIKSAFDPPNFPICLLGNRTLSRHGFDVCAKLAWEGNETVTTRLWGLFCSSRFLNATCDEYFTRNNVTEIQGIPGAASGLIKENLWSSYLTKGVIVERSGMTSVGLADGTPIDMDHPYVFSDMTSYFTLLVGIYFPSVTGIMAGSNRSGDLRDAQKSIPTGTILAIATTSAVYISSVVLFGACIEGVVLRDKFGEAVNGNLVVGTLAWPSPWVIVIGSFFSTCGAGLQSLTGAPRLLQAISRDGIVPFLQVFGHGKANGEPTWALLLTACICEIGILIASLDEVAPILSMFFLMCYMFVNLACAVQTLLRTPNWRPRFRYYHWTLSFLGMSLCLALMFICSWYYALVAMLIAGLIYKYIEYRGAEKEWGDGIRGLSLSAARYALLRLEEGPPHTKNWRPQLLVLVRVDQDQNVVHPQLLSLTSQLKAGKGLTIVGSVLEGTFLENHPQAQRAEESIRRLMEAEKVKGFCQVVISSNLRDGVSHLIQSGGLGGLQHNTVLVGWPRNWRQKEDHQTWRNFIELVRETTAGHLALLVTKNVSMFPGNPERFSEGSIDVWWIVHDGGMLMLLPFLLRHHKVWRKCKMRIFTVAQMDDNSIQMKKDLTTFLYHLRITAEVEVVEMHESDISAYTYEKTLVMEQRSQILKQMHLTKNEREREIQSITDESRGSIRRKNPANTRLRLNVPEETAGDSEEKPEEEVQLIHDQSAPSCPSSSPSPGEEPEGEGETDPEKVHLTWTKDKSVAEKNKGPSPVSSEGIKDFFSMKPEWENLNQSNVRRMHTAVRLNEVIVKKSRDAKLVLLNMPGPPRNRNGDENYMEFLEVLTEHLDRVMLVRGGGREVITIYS
assay-summary: concentration-response of KCC2 transport modulators – cell-based, HEK293 KCC2, FluoZin-2 fluorescence, dose response (AID 1736)
pEC50: −log10 of the molar value.

| compound | pEC50 |
| --- | --- |
| Cc1nn(-c2nc3ccccc3[nH]2)c(N)c1-c1ccccc1 | 4.67 |
| N#Cc1nc(Cc2cccc3ccccc23)oc1NCCN1CCOCC1 | 5.27 |
| CC1(CCc2ccccc2)NC(=O)N(Cc2nnc(-c3ccccc3Br)o2)C1=O (stereo unspecified) | 4.84 |
| S=C(NCc1ccccc1Cl)Nc1ccccc1Cl | 3.69 |
| Cc1ccc(C(=O)CC=Nc2ccccc2C(N)=O)cc1 | 5.47 |
| Cc1ccc2[nH]c(=O)c(CN(CCc3ccccc3)Cc3nnnn3CC3CCCO3)cc2c1 (stereo unspecified) | 5.37 |
| CCCn1c(N)c(C(=O)CSc2nnc(Cc3ccccc3)o2)c(=O)n(C)c1=O | 7.77 |
| Cc1cc(C(=O)COC(=O)CCc2nc3ccccc3s2)c(C)n1C | 4.01 |
| O=C(OCC(=O)N1CCN(C(=O)c2ccco2)CC1)c1sc2ccccc2c1Cl | 6.32 |
| O=C(NN=Cc1ccccn1)c1ccccc1O | 4.53 |
| Cc1ccc2[nH]c3c(N4CCN(Cc5ccccc5)CC4)ncnc3c2c1 | 5.53 |
